- Test system: Vibrio cholerae
- TEST METHOD NOTES: Antibacterial activity against Vibrio cholerae MTCC 3906 by broth microdilution method
- Type: functional
Listing of recorded MIC by entry.
Provide the reading as a plain figure in µg/mL.

COMPOUND: CC1(C)CC(=O)C2=C(C1)N(Nc1ccc(Br)cc1)C(N)=C(C#N)C2c1cc2cc(Cl)ccc2nc1Cl (centres undefined)
READOUT UNITS: µg/mL
MIC: 250

Returns the measured MIC for the input compound. Input: CC1(C)CC(=O)C2=C(C1)N(Nc1ccc(Cl)cc1)C(N)=C(C#N)C2c1cc2cc(Cl)ccc2nc1Cl (centres undefined)
100

Returns the measured MIC for the input compound. Input: COc1ccc2nc(Cl)c(C3C(C#N)=C(N)N(Nc4ccc(F)cc4)C4=C3C(=O)CC(C)(C)C4)cc2c1 (centres undefined)
100

Returns the measured MIC for the input compound. Input: O=C(N[C@H](CO)[C@H](O)c1ccc([N+](=O)[O-])cc1)C(Cl)Cl
50

====

- Test system: Vibrio cholerae
- TEST METHOD NOTES: Antibacterial activity against Vibrio cholerae MTCC 3906 by broth microdilution method
- Format: functional
Listing of recorded MIC by entry.
Provide the reading as a plain figure in µg/mL.

Consider the reported MIC for these compounds:
COMPOUND: CC1(C)CC(=O)C2=C(C1)N(Nc1ccc(Cl)cc1)C(N)=C(C#N)C2c1cc2ccccc2nc1Cl (centres undefined)
READOUT UNITS: µg/mL
TEST RESULT: 500
//
COMPOUND: O=C(O)c1cn(C2CC2)c2cc(N3CCNCC3)c(F)cc2c1=O [CIPROFLOXACIN]
READOUT UNITS: µg/mL
TEST RESULT: 25

Returns the measured MIC for the input compound. Input: Cc1ccc(NN2C(N)=C(C#N)C(c3cc4cc(Cl)ccc4nc3Cl)C3=C2CC(C)(C)CC3=O)cc1 (centres undefined)
250

Returns the measured MIC for the input compound. Input: CC1(C)CC(=O)C2=C(C1)N(Nc1ccc(Br)cc1)C(N)=C(C#N)C2c1cc2ccccc2nc1Cl (centres undefined)
100

Returns the measured MIC for the input compound. Input: COc1ccc2nc(Cl)c(C3C(C#N)=C(N)N(Nc4ccc(Cl)cc4)C4=C3C(=O)CC(C)(C)C4)cc2c1 (centres undefined)
100

Returns the measured MIC for the input compound. Input: CC1(C)CC(=O)C2=C(C1)N(Nc1ccc(F)cc1)C(N)=C(C#N)C2c1cc2cc(Cl)ccc2nc1Cl (centres undefined)
125

Returns the measured MIC for the input compound. Input: CCn1cc(C(=O)O)c(=O)c2cc(F)c(N3CCNCC3)cc21 [NORFLOXACIN]
10

Returns the measured MIC for the input compound. Input: CC1(C)CC(=O)C2=C(C1)N(Nc1ccc(F)cc1)C(N)=C(C#N)C2c1cc2ccccc2nc1Cl (centres undefined)
200

Returns the measured MIC for the input compound. Input: COc1ccc(NN2C(N)=C(C#N)C(c3cc4ccccc4nc3Cl)C3=C2CC(C)(C)CC3=O)cc1 (centres undefined)
250
